Origin of values: a melting point compilation (Tetko et al.; mined from patent text by program, amines drawn as free bases though some values may be those of a salt)

Quick reference for melting point among some compounds

| structure_string | melting point |
| --- | --- |
| CCCCc1nn(-c2cc(N)ccc2C(F)(F)F)c(=O)n1Cc1ccc(-c2ccccc2S(=O)(=O)NC(=O)OC(C)(C)C)cc1 | 154 to 156 °C |
| COc1cc2ncc(O[C@H]3CC[C@@H](OC(C)=O)CC3)nc2cc1OC | 150 to 152 °C |
| CCOC(=O)Nc1cc2c(cn1)[nH]c1ccccc12 | 222 to 224 °C |

====

| compound | melting point |
| --- | --- |
| CN(C(=O)OC(C)(C)C)c1cc(Oc2ccc(C#N)cc2)ccc1[N+](=O)[O-] | 141 to 143 °C |
| COC(=O)c1cc(Cl)ccc1-n1c(CCl)nc2ccccc2c1=O | 135 to 136 °C |
| O=C(O)C1CCCC(NC(=O)C(CS)Cc2ccccc2)C1 (configuration not stated) | 174 to 177 °C |
| CCC(CC)Oc1cc(C)nc2c1COCN2c1c(C)cc(Cl)cc1C | 190 to 192 °C |
| COc1cc(NC(=O)C2C(=O)N(C)C(=O)N(C)C2=O)ccc1Oc1nnc(C(C)(C)C)s1 | 178 to 179 °C |
| Cc1cc(Oc2c(Cl)cc(C(F)(F)F)cc2Cl)n[nH]1 | 153 to 155 °C |
| Cc1cc(OC/C=C(\c2ccc(C#CCN3CCOCC3)cc2)c2ccc(S(C)=O)cc2)ccc1OCC(=O)O (configuration not stated) | 137 to 142 °C |
| ClCc1nc2sc3c(c2c(-c2ccc(Cl)cc2)c1Cl)CCN(Cc1ccccc1)C3 | 204 to 205 °C |
| OCc1ccc(OCc2ccccc2)cn1 | 66 to 68 °C |
| CC1(C)OCC(Cc2ccc(C=Cc3ccc([N+](=O)[O-])cc3)cc2)O1 (configuration not stated) | 146 to 147 °C |
| N#Cc1c(N2CCN(C(=O)c3ccc(C(F)(F)F)cc3)CC2)c2ccccc2n(Cc2ccc(F)cc2)c1=O | 181 to 185 °C |
| COc1ccc2ccc3c(c2c1)C=C(C(=O)O)CO3 | 226 °C |
